Test system: Mycobacterium tuberculosis
Assay: Activity at Mycobacterium tuberculosis recombinant riboflavin synthase after 30 mins by fluorescence assay
MEASUREMENT TYPE: kcat
# output: numeric value plus its unit

O=C1Nc2ccc(S(=O)(=O)NCCCCCCOP(=O)(O)O)c3cccc1c23    0.56 min⁻¹
O=C1Nc2ccc(S(=O)(=O)NCCCOP(=O)(O)O)c3cccc1c23    0.28 min⁻¹
O=C1Nc2ccc(S(=O)(=O)NCCOP(=O)(O)O)c3cccc1c23    0.3 min⁻¹
CCOC(=O)C(=O)Nc1c(Cl)[nH]c(=O)[nH]c1=O    0.34 min⁻¹
O=C1Nc2ccc(S(=O)(=O)NCCCCOP(=O)(O)O)c3cccc1c23    0.29 min⁻¹

Task: Request the reported kcat associated with "O=C1Nc2ccc(S(=O)(=O)NCCCCCOP(=O)(O)O)c3cccc1c23"
Output: 0.56 min⁻¹
